// reported protein stability index per item
Method: protein stability index of a GFP-peptide fusion (yeast GPS) (PSI 1-4); higher = more stable; sorted into four equal gates, so the index is relative within each strain
Condition Label: pdr5∆
Reported Metric: protein stability index

> print(dat)
                   residue.sequence  reported.measurement
1          KGEVYTIPLGGSVHKLP [PRE3]                  2.95
2          GGIVTVRSEMGEPIHKI [FAS1]                  2.91
3  AEASFTFGTKHAADSQN [YLR335W/NUP2]                  3.01
4          YLKVSEEEIKKFDSRIR [PRP8]                  3.08
5        DLKLPPMDAYLKLNHII [SNU114]                  2.94
6          ITSDALEGITTTIDSLN [SMC3]                  2.93

====

Method: protein stability index of a GFP-peptide fusion (yeast GPS) (PSI 1-4); higher = more stable; sorted into four equal gates, so the index is relative within each strain
Condition Label: doa10∆
Reported Metric: protein stability index

> print(dat)
                      residue.sequence          reported.metric  reported.measurement
 1            LKYLDDLKAQFQELDSK [RPN9]  protein stability index                  3.13
 2            ELLAYQFASPVRWIETQ [FAS2]  protein stability index                  1.77
 3            LTLMEKAAFEDLKSKGL [FAS1]  protein stability index                  3.03
 4  VVDFTSLPEELKKRYDL [YMR129W/POM152]  protein stability index                  2.14
 5            HHDYRSYYGIVCLMQIS [RRP6]  protein stability index                  2.03
 6            RCWKANIPWDVPGMPAP [PRP8]  protein stability index                  2.15
 7           TKDIFPLQNIHVRKVKL [RPS1A]  protein stability index                   2.4
 8    SGHDDLVHDVVYDFYGR [YGL100W/SEH1]  protein stability index                  2.49
 9            RTPVIISLRNNHKIIAR [SMD2]  protein stability index                  1.77
10            PVAKWFVKFITYLTQEI [SIN4]  protein stability index                  2.32
11          GQRDLDRIAAQTLEEDE [RPS19A]  protein stability index                  3.21
12           GKKASLNVGNVLPLGSV [RPL2A]  protein stability index                   2.4
13           VPEFFQTANEKHITVRL [SRP14]  protein stability index                  3.02
14    KERTKSLEHELKRSTEL [YIL149C/MLP2]  protein stability index                  3.04
15           AEKELEAEIECFDSTTG [RRP40]  protein stability index                  3.21
16            KTAYSIYLSQNELTDAI [RPN1]  protein stability index                  2.48
17            ESEYREFESELKNVEET [ESC2]  protein stability index                  3.54
18    WLKEYEDETLRRIKEAE [YIL149C/MLP2]  protein stability index                  2.83
19            SPIPFPPLTYKNDTKIL [PRP8]  protein stability index                  2.91
20            GPVAAQFTKVIDEPIKS [FAS1]  protein stability index                   1.8
21            CSFITQDKMFVSNPIRK [FAS1]  protein stability index                  1.37
22            GEIQLLFQRQKLHEFYL [IRR1]  protein stability index                  2.71
23            MMTRRVVMAMYNPKMID [RET1]  protein stability index                  3.46
24           QTFNFDSFENYFNQLKP [RPN12]  protein stability index                  2.76
25            CKLFLADVFTDDDLFET [YCG1]  protein stability index                  3.03
26            YQSSVQEPFLNSSNYAE [PRP8]  protein stability index                  2.99
27            KTNFQDVILDYQTKKFY [REC8]  protein stability index                  1.62
28            LQQAKLRESEISQKLTN [SMC3]  protein stability index                  3.18
29    SQDATKVDATPEESKPI [YLR335W/NUP2]  protein stability index                  2.87
30           GDRGALARASGNYVIII [RPL2A]  protein stability index                  2.82
31    METRINILLRERDSYKL [YIL149C/MLP2]  protein stability index                  1.96
32            DVSPLRRVNQAIALLTI [RPS5]  protein stability index                  2.07
33            EGSWDRGIPRISTLFQR [PRP8]  protein stability index                  2.79
34            NMEIRNLRLKILTIIEE [GRR1]  protein stability index                  1.62

====

// reported protein stability index per item
Method: protein stability index of a GFP-peptide fusion (yeast GPS) (PSI 1-4); higher = more stable; sorted into four equal gates, so the index is relative within each strain
Condition Label: ubr1∆
Reported Metric: protein stability index

> print(dat)
                      residue.sequence          reported.metric  reported.measurement
 1           TIFKYLTDKDAFETHYR [CDC53]  protein stability index                  2.98
 2            LNNNNNNNNTTTTTTTT [SWI1]  protein stability index                  3.22
 3           QQPNPLHGLTPTAKDVE [GAL11]  protein stability index                  3.07
 4           KVGYTLPSHIISTSDVT [RPL4A]  protein stability index                   2.5
 5   KHISASIDNDFSEEKAE [YAR002W/NUP60]  protein stability index                  2.97
 6    IPTKESLTRDFEQCCKE [YIL149C/MLP2]  protein stability index                  2.88
 7            ELSRIENEVENINATNT [YCS4]  protein stability index                  3.14
 8            GRRLNIRQYALATAHIY [SSN8]  protein stability index                  1.09
 9            EQKWLIYDKKDHKYVCT [SRB8]  protein stability index                  3.23
10           PLILTPPQLANQQQPPQ [SNF11]  protein stability index                  2.15
11            EIFDVTSNGLKKNPNWL [FAS1]  protein stability index                  3.37
12            RPPNGIKNFKSLLLSSS [SSN2]  protein stability index                  1.48
13            EEKQKSYKFPRGTTAVL [PUP1]  protein stability index                  2.91
14            LPLRLQFNEFIQIMANI [PGD1]  protein stability index                  1.17
15            DLAERASELDESKDSIQ [SMC3]  protein stability index                  3.17
16   QTIPIQIYGFEGLNQRN [YGR119C/NUP57]  protein stability index                  3.08
17           AGADRLQQGMRGAWGKP [RPL10]  protein stability index                  3.31
18            LSTRAGGLGLNLQTADT [SNF2]  protein stability index                   3.2
19            IGAELKREESESAAVYN [SNF2]  protein stability index                  3.21
20           SFGNREEFINKLVKAMN [RPL7B]  protein stability index                  2.75
21            DILQITKKPLMVKNVKP [SIR4]  protein stability index                  2.63
22           RASLVPGTVLILLAGRF [RPL6A]  protein stability index                  1.75
23            RSKFGGDFLDFQVHERL [ARP7]  protein stability index                  3.32
24            GDRQRLGEEHPLQVARC [RPT1]  protein stability index                  1.53
25            AWRTLVGVSHTNEEVRN [CYT1]  protein stability index                  2.18
26  LRACAANVDQISFLEPI [YMR129W/POM152]  protein stability index                  2.97
27           VSTRAIDLLWKGKTPKN [PRP28]  protein stability index                  1.16
28           GFIDASCIAVMAGLMHF [RRP45]  protein stability index                  1.46
29            HQNVIIGSNGSGKSNFF [SMC3]  protein stability index                  2.85
30   KSKKSWLNRLNNWLFGW [YMR153W/NUP53]  protein stability index                  2.94

Reference source: the supplement of paper PMC9732359
